Target: ERα (Homo sapiens, UniProt P03372)
Sequence (P03372 whole entry): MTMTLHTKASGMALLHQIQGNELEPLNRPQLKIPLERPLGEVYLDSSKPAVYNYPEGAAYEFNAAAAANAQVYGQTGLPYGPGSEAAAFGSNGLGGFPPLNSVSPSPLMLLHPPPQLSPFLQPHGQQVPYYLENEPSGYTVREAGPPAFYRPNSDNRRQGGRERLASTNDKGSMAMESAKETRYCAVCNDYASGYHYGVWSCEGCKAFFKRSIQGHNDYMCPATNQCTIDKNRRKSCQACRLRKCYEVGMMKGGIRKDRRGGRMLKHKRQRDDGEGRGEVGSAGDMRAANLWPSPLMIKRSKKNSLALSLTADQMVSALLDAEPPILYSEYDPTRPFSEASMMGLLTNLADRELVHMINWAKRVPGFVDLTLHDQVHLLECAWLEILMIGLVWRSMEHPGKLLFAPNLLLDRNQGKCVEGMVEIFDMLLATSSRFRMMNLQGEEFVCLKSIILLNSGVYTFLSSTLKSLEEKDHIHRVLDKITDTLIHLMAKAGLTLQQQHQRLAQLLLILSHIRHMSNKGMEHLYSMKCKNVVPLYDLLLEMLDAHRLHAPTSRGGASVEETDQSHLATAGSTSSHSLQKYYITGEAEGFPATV
Assay: Degradation of ERα in MCF-7 cells (immunoblotting, 4 h)
Type: cell-based
Conditions: 10nM compound
Endpoint label: Degradation rate (%) of ERα in MCF-7 cells

{"Compound": "C[C@@H]1Cc2c([nH]c3ccccc23)[C@@H](c2c(F)cc(N3CCC4(CC3)CC(N3CC[C@@H](N5CCC6(CC5)COc5c6ccc6c5CN(C5CCC(=O)NC5=O)C6=O)[C@@H](F)C3)C4)cc2F)N1CC(F)F (some centres unmarked)", "Quantitative result": 58}
{"Compound": "O=C1CCC(N2Cc3c(ccc4c3OCC43CCN(C(=O)C4CCN(CC5(F)CCN(c6ccc([C@@H]7c8ccc(O)cc8CC[C@@H]7c7ccccc7)cc6)CC5)CC4)CC3)C2=O)C(=O)N1 (some centres unmarked) [E1]", "Quantitative result": 75}
{"Compound": "O=C1CCC(N2Cc3c(ccc4c3OCC43CCN(C4CCN(C(=O)C5CCN(c6ccc([C@@H]7c8ccc(O)cc8CC[C@@H]7c7ccccc7)cc6)CC5)[C@@H](C(=O)N5CCC(F)(F)CC5)C4)CC3)C2=O)C(=O)N1 (some centres unmarked)", "Quantitative result": 49}
{"Compound": "CN(C(=O)CN1CCC2(CC1)COc1c2ccc2c1CN(C1CCC(=O)NC1=O)C2=O)C1CCC2(CC1)CCN(c1ccc([C@@H]3c4ccc(O)cc4CC[C@@H]3c3ccccc3)cc1)CC2 (some centres unmarked)", "Quantitative result": 71}
{"Compound": "C[C@@H]1Cc2c([nH]c3ccccc23)[C@@H](c2c(F)cc(N3CCC4(CCN(CC(=O)N5CCC6(CC5)COc5c6ccc6c5CN(C5CCC(=O)NC5=O)C6=O)CC4)CC3)cc2F)N1CC(F)F (some centres unmarked)", "Quantitative result": 63}
{"Compound": "O=C1CCC(N2Cc3c(ccc4c3OCC43CCN(C4CC5(CCC6(CCN(C7CCN(c8ccc([C@@H]9c%10ccc(O)cc%10CC[C@@H]9c9ccccc9)cc8)CC7)CC6)CC5)C4)CC3)C2=O)C(=O)N1 (some centres unmarked)", "Quantitative result": 42}
{"Compound": "O=C1CCC(N2Cc3cc4c(cc3C2=O)OC2(CC4)CN(CC3CCN(c4ccc([C@@H]5c6ccc(O)cc6CC[C@@H]5c5ccccc5)cc4)CC3)C2)C(=O)N1 (some centres unmarked)", "Quantitative result": -37}
{"Compound": "C[C@@H]1Cc2c([nH]c3ccccc23)[C@@H](c2c(F)cc(N3CCC(N4CC[C@@H](N5CCC6(CC5)COc5c6ccc6c5CN(C5CCC(=O)NC5=O)C6=O)[C@@H](F)C4)CC3)cc2F)N1CC(F)F (some centres unmarked)", "Quantitative result": 66}
{"Compound": "O=C1CCC(N2Cc3c(ccc4c3OCC43CCN(CC(=O)N4CCC(C#Cc5ccc([C@@H]6c7ccc(O)cc7CC[C@@H]6c6ccccc6)cc5)CC4)CC3)C2=O)C(=O)N1 (some centres unmarked)", "Quantitative result": 47}
{"Compound": "O=C1CCC(N2Cc3c(ccc4c3OCC43CCN(C4CCN(C(=O)c5ccc([C@@H]6c7ccc(O)cc7CC[C@@H]6c6ccccc6)cc5)CC4)CC3)C2=O)C(=O)N1 (some centres unmarked)", "Quantitative result": -54}
{"Compound": "O=C1CCC(N2Cc3cc4c(cc3C2=O)OC2(CC4)CN(C3CCC4(CC3)CN(c3ccc(C5c6ccc(O)cc6CCC5c5ccccc5)cc3)C4)C2)C(=O)N1 (centres unmarked)", "Quantitative result": 16}
{"Compound": "C[C@@H]1Cc2c(ccc3[nH]ncc23)[C@@H](c2c(F)cc(N3CCC(C(=O)N4CCC(N5CCC6(CC5)COc5c6ccc6c5CN(C5CCC(=O)NC5=O)C6=O)CC4)CC3)cc2F)N1CC(F)F (some centres unmarked)", "Quantitative result": 57}
{"Compound": "O=C1CCC(N2Cc3cc4c(cc3C2=O)OCC42CCN(C3CCC4(CC3)CN(c3ccc([C@@H]5c6ccc(O)cc6CC[C@@H]5c5ccccc5)cc3)C4)CC2)C(=O)N1 (some centres unmarked)", "Quantitative result": 35}
{"Compound": "CCN(CC1CCN(c2ccc([C@@H]3c4ccc(O)cc4CC[C@@H]3c3ccccc3)cc2)CC1)[C@H]1CC[C@@H](C(=O)N2CCC3(CC2)COc2c3ccc3c2CN(C2CCC(=O)NC2=O)C3=O)CC1 (some centres unmarked)", "Quantitative result": 31}
{"Compound": "O=C1CCC(N2Cc3c(ccc4c3OCC43CCN(C[C@H]4CC[C@@H](OC5CCN(c6ccc([C@@H]7c8ccc(O)cc8CC[C@@H]7c7ccccc7)cc6)CC5)CC4)CC3)C2=O)C(=O)N1 (some centres unmarked)", "Quantitative result": 77}
{"Compound": "O=C1CCC(N2Cc3c(ccc4c3OCC43CCN(C4CCN(CC5CCN(c6ccc([C@@H]7c8ccc(O)cc8CC[C@@H]7c7ccccc7)cc6)CC5)CC4)CC3)C2=O)C(=O)N1 (some centres unmarked)", "Quantitative result": 35}
{"Compound": "CC1(CN2CCC3(CC2)COc2c3ccc3c2CN(C2CCC(=O)NC2=O)C3=O)CCN(CC2CCN(c3ccc([C@@H]4c5ccc(O)cc5CC[C@@H]4c4ccccc4)cc3)CC2)CC1 (some centres unmarked)", "Quantitative result": 41}
{"Compound": "CC1CN(C2CCN(c3ccc([C@@H]4c5ccc(O)cc5CC[C@@H]4c4ccccc4)cc3)CC2)CCC1N1CCC2(CC1)COc1c2ccc2c1CN(C1CCC(=O)NC1=O)C2=O (some centres unmarked)", "Quantitative result": 63}
{"Compound": "O=C1CCC(N2Cc3cc4c(cc3C2=O)OC2(CC4)CCN(C3CC4(CCN(c5ccc([C@@H]6c7ccc(O)cc7CC[C@@H]6c6ccccc6)cc5)CC4)C3)CC2)C(=O)N1 (some centres unmarked)", "Quantitative result": 0}
{"Compound": "C[C@@H]1Cc2c(ccc3[nH]ncc23)C(c2ccc(N3CCC4(CCN(CC(=O)N5CCC6(CC5)COc5c6ccc6c5CN(C5CCC(=O)NC5=O)C6=O)C4)CC3)cn2)N1CC(F)(F)F (some centres unmarked)", "Quantitative result": 75}

These measurements were taken from patent EP4656642A1.
